Entries and their Selectivity ratio
- Organism: Homo sapiens
- Test summary: Selectivity for MMP13 over MMP2
Provide a numeric answer; units are not to be included.

CCOCCC1(Oc2ccc(Oc3ccc(C(=O)Nc4ccccc4)cc3)cc2)C(=O)NC(=O)NC1=O : 58

Q: Quick check: Selectivity ratio of CCOCCC1(Oc2ccc(Oc3ccc(-c4nc(-c5ccc(C#N)cc5)co4)cc3)cc2)C(=O)NC(=O)NC1=O ?
Result: 429

Q: Quick check: Selectivity ratio of CCOCCC1(Oc2ccc(Oc3ccc(-c4nc(-c5cccc(F)c5)no4)cc3)cc2)C(=O)NC(=O)NC1=O ?
Result: 88

Q: Quick check: Selectivity ratio of CCOCCC1(Oc2ccc(Oc3ccc(-c4nc(-c5ccc(F)cc5)co4)cc3)cc2)C(=O)NC(=O)NC1=O ?
Result: 455

Q: Quick check: Selectivity ratio of CCOCCC1(Oc2ccc(Oc3ccc(C(=O)Nc4ccccn4)cc3)cc2)C(=O)NC(=O)NC1=O ?
Result: 27

---

The next entries give measured IC50 for Collagenase 3 (Homo sapiens).
The reply should contain only the number, in nM.

Guide cases for IC50, answers given:
CCOCCC1(Oc2ccc(Oc3ccc(-c4nc(-c5ccccc5C#N)co4)cc3)cc2)C(=O)NC(=O)NC1=O : 0.88
CCOCCC1(Oc2ccc(Oc3ccc(-c4noc(-c5ccccc5)n4)cc3)cc2)C(=O)NC(=O)NC1=O : 0.84
CCOCCC1(Oc2ccc(Oc3ccc(-c4cnc(-c5ccccc5)o4)cc3)cc2)C(=O)NC(=O)NC1=O : 1.7

Q: Request body: readout IC50, system Collagenase 3 (Homo sapiens), query CCOCCC1(Oc2ccc(Oc3ccc(C(=O)NCc4cccnc4)cc3)cc2)C(=O)NC(=O)NC1=O . Return the value.
Result: 2.6

Q: Request body: readout IC50, system Collagenase 3 (Homo sapiens), query CCOCCC1(Oc2ccc(Oc3ccc(-c4nc(-c5ccccc5)co4)cc3)cc2)C(=O)NC(=O)NC1=O . Return the value.
Result: 2.4

Q: Request body: readout IC50, system Collagenase 3 (Homo sapiens), query CCOCCC1(Oc2ccc(Oc3ccc(-c4nc(-c5ccccn5)co4)cc3)cc2)C(=O)NC(=O)NC1=O . Return the value.
Result: 1

Q: Request body: readout IC50, system Collagenase 3 (Homo sapiens), query CCOCCC1(Oc2ccc(Oc3ccc(-c4nc(-c5cccnc5)no4)cc3)cc2)C(=O)NC(=O)NC1=O . Return the value.
Result: 2

Q: Request body: readout IC50, system Collagenase 3 (Homo sapiens), query CCOCCC1(Oc2ccc(Oc3ccc(-c4nc(-c5ccncc5)no4)cc3)cc2)C(=O)NC(=O)NC1=O . Return the value.
Result: 0.54

Q: Request body: readout IC50, system Collagenase 3 (Homo sapiens), query COCCC1(Oc2ccc(Oc3ccc(-c4nc(-c5ccc(C#N)cc5)co4)cc3)cc2)C(=O)NC(=O)NC1=O . Return the value.
Result: 0.84

Q: Request body: readout IC50, system Collagenase 3 (Homo sapiens), query CCOCCC1(Oc2ccc(Oc3ccc(-c4nc(-c5ccc(F)cc5)co4)cc3)cc2)C(=O)NC(=O)NC1=O . Return the value.
Result: 0.68

Q: Request body: readout IC50, system Collagenase 3 (Homo sapiens), query CCOCCC1(Oc2ccc(Oc3ccc(-c4nc(-c5ccccc5F)no4)cc3)cc2)C(=O)NC(=O)NC1=O . Return the value.
Result: 3.3
